assay: 24 hr in-vivo study: meloxicam plasma concentration and pharmacokinetics after oral (gavage) administration to male rats; settings: male, Sprague-Dawley, rat, plasma, po, 1 mg/kg
reported-endpoint: bioavailability (%)
Enter your answer as a number in %; do not include the unit.

Which bioavailability value is on record for Cc1cnc(NC(=O)C2=C(O)c3ccccc3S(=O)(=O)N2C)s1 [Meloxicam, reference compound] ? 15.7

====

assay: IV comparator group, meloxicam pharmacokinetics in rats; assay type: in vivo; conditions: Sprague-Dawley, rat, plasma, 1 mg/kg, PEG400:DMSO formulation, read-out: AUC (area under the plasma concentration-time curve at 24 h)
reported-endpoint: AUC (ng·h/mL)
Enter your answer as a number in ng·h/mL; do not include the unit.

Which AUC value is on record for Cc1cnc(NC(=O)C2=C(O)c3ccccc3S(=O)(=O)N2C)s1 [Meloxicam, reference compound] ? 63600

====

assay: 4 hr in-vivo study: meloxicam plasma concentration after oral delivery to rats; conditions: rat, time 45 min
# binarize meloxicam plasma concentration: threshold 20 µg/mL inclusive, high side TRUE, low side FALSE

Solved entries (count: 2):
Identify whether the reported meloxicam plasma concentration of the following compound is 20 µg/mL or greater: Cc1cnc(NC(=O)C2=C(O)c3ccccc3S(=O)(=O)N2C)s1.Cc1cnc(NC(=O)C2=C(O)c3ccccc3S(=O)(=O)N2C)s1.O=C(O)CC(O)C(=O)O TRUE

Identify whether the reported meloxicam plasma concentration of the following compound is 20 µg/mL or greater: Cc1cnc(NC(=O)C2=C(O)c3ccccc3S(=O)(=O)N2C)s1.O=C(O)CCCC(=O)O FALSE

Others:
Identify whether the reported meloxicam plasma concentration of the following compound is 20 µg/mL or greater: Cc1cnc(NC(=O)C2=C(O)c3ccccc3S(=O)(=O)N2C)s1.O=C(O)c1ccc2ccccc2c1O TRUE

Identify whether the reported meloxicam plasma concentration of the following compound is 20 µg/mL or greater: Cc1cnc(NC(=O)C2=C(O)c3ccccc3S(=O)(=O)N2C)s1.O=C(O)CCc1ccccc1 FALSE

Identify whether the reported meloxicam plasma concentration of the following compound is 20 µg/mL or greater: Cc1cnc(NC(=O)C2=C(O)c3ccccc3S(=O)(=O)N2C)s1.Cc1cnc(NC(=O)C2=C(O)c3ccccc3S(=O)(=O)N2C)s1.O=C(O)CCC(=O)O TRUE

====

assay: 4 hr in-vivo study: meloxicam plasma concentration after oral delivery to rats; settings: rat, time 45 min
Measured meloxicam plasma concentration, listed per entry for reference.
Enter your answer as a number in µg/mL; do not include the unit.

Record excerpt, results attached:
Which meloxicam plasma concentration value is on record for Cc1cnc(NC(=O)C2=C(O)c3ccccc3S(=O)(=O)N2C)s1.O=C(O)CO [Cocrystal 28, Meloxicam:Glycolic Acid Cocrystal (1:1)] ? 22.66

Which meloxicam plasma concentration value is on record for Cc1cnc(NC(=O)C2=C(O)c3ccccc3S(=O)(=O)N2C)s1.O=C(O)/C=C\C(=O)O [Cocrystal 21, Meloxicam:Maleic Acid Cocrystal (1:1)] ? 31.19

Which meloxicam plasma concentration value is on record for Cc1cnc(NC(=O)C2=C(O)c3ccccc3S(=O)(=O)N2C)s1.Cc1cnc(NC(=O)C2=C(O)c3ccccc3S(=O)(=O)N2C)s1.O=C(O)/C=C/C(=O)O [Cocrystal 143, Meloxicam:Fumaric Acid Cocrystal (2:1)] ? 9.69

Which meloxicam plasma concentration value is on record for Cc1cnc(NC(=O)C2=C(O)c3ccccc3S(=O)(=O)N2C)s1.O=C(O)c1ccccc1 [Cocrystal 153, Meloxicam:Benzoic Acid Cocrystal (1:1)] ? 28.30

Next up:
Which meloxicam plasma concentration value is on record for Cc1cnc(NC(=O)C2=C(O)c3ccccc3S(=O)(=O)N2C)s1.O=C(O)CC(=O)O [Cocrystal 22, Meloxicam:Malonic Acid Cocrystal (1:1)] ? 27.00
